Each entry below carries its recorded pEC50.
Procedure Details: Antioxidant activity assessed as superoxide radical anion scavenging activity by spectrophotometric analysis
Format: functional
pEC50: −log10 of the molar value.

>>> result("Oc1cccc(-c2nc3cc(O)ccc3[nH]2)c1")
"< 3.70"
>>> result("COc1ccc2[nH]c(-c3cccc(O)c3)nc2c1")
"< 3.70"
>>> result("COc1ccc2[nH]c(-c3ccc(O)cc3O)nc2c1")
3.72
>>> result("Oc1ccc(-c2nc3ccccc3[nH]2)cc1")
"< 3.70"
>>> result("COc1ccc(-c2nc3ccccc3[nH]2)cc1")
"< 3.70"
>>> result("COc1cc(O)ccc1-c1nc2cc(O)ccc2[nH]1")
"< 3.70"

Field: next molecule
Query: Form field: reported pEC50 of Oc1ccccc1-c1nc2ccccc2[nH]1
Response: 3.91
